Target or system IRAK4 (Homo sapiens (Human)); metric IC50; compiled from varied reports.

Here's what some known entries look like.
| compound | measured.target | IC50 |
| --- | --- | --- |
| CCOCCC1CCc2sc3ncnc(O[C@H]4CC[C@H](N(C)C)CC4)c3c21 (stereo partly drawn) | IRAK4 (Homo sapiens (Human)) | 5000 to 20000 nM |
| N[C@H](c1cccc(-c2cc(OCC(F)F)c3cnn(-c4cccc(CO)n4)c3c2)n1)[C@H]1C[C@@H](O)C1 | IRAK4 (Homo sapiens (Human)) | ≤ 100 nM |
| Cc1cccc(-n2ncc3c(N(C)C)cc(-c4cccc(C(C)N)n4)cc32)n1 (stereo not drawn) | IRAK4 (Homo sapiens (Human)) | < 100 nM |
| CC(=O)NC1CCC(Nc2nc(-c3cccc(-c4cnn(C)c4)c3)ncc2-c2nnc(C)s2)CC1 (stereo not drawn) | IRAK4 (Homo sapiens (Human)) | < 100 nM |
| Brc1ccc2ncnc(O[C@H]3CC[C@H](N4CCOCC4)CC3)c2c1 | IRAK4 (Homo sapiens (Human)) | ≤ 5000 nM |

// below: IC50 requested for another compound
Documented IC50 of CCCCc1noc(-c2cnc(Nc3ccc4c(c3)C(C)(C)OC4=O)nc2N[C@H](CO)c2ccccc2)n1 : 250 to 1000 nM
